assay: qHTS assay to identify small molecule agonists of the endoplasmic reticulum stress response signaling pathway (AID 1159516); conditions: ESRE-bla HeLa, ER stress beta-lactamase reporter, 5 h; series mostly up to 61 µM
Records with an inconclusive call do not appear. Calls of active or inactive are those of the source. Calls come from the whole dose curve; as a rule, active = well fitted activation curve with a large enough effect in the signal ratio in the repeat runs (not every such curve was filed as active); inconclusive = weak or mixed curves, or effect the other way; inactive = flat fitted curve, though single readings scatter; the % refers to the signal ratio.
measured_quantity: outcome

[[record]]
compound = "COc1cc(OC)nc(Sc2cccc(Cl)c2C(=O)O)n1"
result = "inactive"

[[record]]
compound = "Cc1nnc2n1-c1sc(CCC(=O)N3CCOCC3)cc1C(c1ccccc1Cl)=NC2"
result = "inactive"

[[record]]
compound = "CC(C=O)Cc1ccc2c(c1)OCO2 (centres undefined)"
result = "inactive"

[[record]]
compound = "COC(C)(C)C"
result = "inactive"

[[record]]
compound = "N#Cc1ccncc1"
result = "inactive"

[[record]]
compound = "ClCC(Cl)(Cl)Cl"
result = "inactive"

[[record]]
compound = "OC(c1ccc(F)cc1)(c1cncnc1)c1ccccc1Cl (centres undefined)"
result = "inactive"

[[record]]
compound = "CCOP(=S)(Oc1cnc(C(C)(C)C)nc1)OC(C)C (centres undefined)"
result = "inactive"


Input COP(=S)(OC)Oc1c(Cl)cc(C)cc1Cl . Output outcome: inactive

The reported value for CCCSC(=O)Cl in terms of outcome is inactive

# compound OCCSCSCCO ; its outcome = inactive

The recorded outcome for entry CC(C)COP(=O)(OCC(C)C)OCC(C)C equals inactive

Reported outcome for CSc1nc(N=[N+]=[N-])nc(NC(C)C)n1 was inactive

Field outcome (entry CCN(Cc1ccc(Cl)nc1)/C(=C/[N+](=O)[O-])NC ) reads inactive
